- SYSTEM_NAME: T1, human IL-2 (human, UniProt P60568 21-153)
- T1 construct: The source is told for the ELISA; nothing else is said for the SPR
- TEST_DETAILS: SPR; multicycle kinetics, Biacore 8K+; knob domain constructs immobilised on a CM5 chip via amine coupling, IL-2 in solution; HBS-EP+; two-state binding model, only the fastest association and the slowest dissociation rate constants reported
- EXPERIMENTAL_SETUP: both partners purified
MEASURE: pKd
To interpret pKd, take it as minus log10 of a concentration measured in moles per litre.

For aIL2_1-BECN1 (other, bovine (knob domain), also called aIL2_1, BECN1 framework; not shown: His8, C-terminal, kept) YQREYSEFKRQQLELDDELGSSCPESYRFHSDRWSRNCCIPDSWDDSYVWNCDHYAVRPAIGSLIQELEDVEKNRKIVAENL the binder record lists pKd as 7.97
